# key: entry, value: inhibition at 0.01 µM
- target.system: UniProt:P78527
- experiment: Evaluation of inhibitory activity against DNA-PK (HTRF kinase assay, GST-cMyc-p53 substrate)
- Format: biochemical
- condition.label: compound concentration 0.01 μM; read-out: EXP_VALUE(% Inhibition) DNA-PK(h) 0.01 μM
outcome.measure: inhibition at 0.01 µM (%)

* C[C@H](Nc1ncnc2[nH]ccc(=O)c12)c1c(Cl)c2cccc(-c3ccc(CN4CCOCC4)cc3F)c2c(=O)n1-c1ccccc1 | 67
* Cc1c[nH]nc1-c1cccc2c(Cl)c([C@H](C)Nc3ncnc4[nH]ccc(=O)c34)n(-c3ccccc3)c(=O)c12 | 7
* C[C@H](Nc1ncnc2[nH]ccc(=O)c12)c1c(Cl)c2cccc(-n3cccn3)c2c(=O)n1-c1ccccc1 | 12.3
* Cc1nc2ccc(-c3cccc4c(Cl)c([C@H](C)Nc5ncnc6[nH]ccc(=O)c56)n(-c5ccccc5)c(=O)c34)cc2o1 | 69
* C[C@H](Nc1ncnc2[nH]ccc(=O)c12)c1c(Cl)c2cccc(N3CCc4ccccc43)c2c(=O)n1-c1ccccc1 | 13
* C[C@H](Nc1ncnc2[nH]ccc(=O)c12)c1c(Cl)c2cccc(N3CCc4ccsc4C3)c2c(=O)n1-c1ccccc1 | 10
* C[C@H](Nc1ncnc2[nH]ccc(=O)c12)c1c(Cl)c2cccc(-c3ccc4ocnc4c3)c2c(=O)n1-c1ccccc1 | 49
* COCc1ncc(-c2cccc3c(Cl)c([C@H](C)Nc4ncnc5[nH]ccc(=O)c45)n(-c4ccccc4)c(=O)c23)cn1 | 44
* CC(C)C1CCN(c2cccc3c(Cl)c([C@H](C)Nc4ncnc5[nH]ccc(=O)c45)n(-c4ccccc4)c(=O)c23)CC1 | 1
* C[C@H](Nc1ncnc2[nH]ccc(=O)c12)c1c(Cl)c2cccc(-c3ccc(C4CC4)nc3)c2c(=O)n1-c1ccccc1 | 27
* C[C@H](Nc1ncnc2[nH]ccc(=O)c12)c1c(Cl)c2ccccc2c(=O)n1-c1ccccc1 | 46
* C[C@H](Nc1ncnc2[nH]ccc(=O)c12)c1c(Cl)c2cccc(-c3ccc(C(N)=O)cc3)c2c(=O)n1-c1ccccc1 | 90
* CC(C)NC(=O)c1ccc(-c2cccc3c(Cl)c([C@H](C)Nc4ncnc5[nH]ccc(=O)c45)n(-c4ccccc4)c(=O)c23)cc1 | 71

----------
# key: entry, value: inhibition at 0.01 µM
- target.system: DNA-PK(h) (Homo sapiens)
- experiment: Evaluation of inhibitory activity against DNA-PK (HTRF kinase assay, GST-cMyc-p53 substrate)
- Format: biochemical
- condition.label: compound concentration 0.01 μM; read-out: EXP_VALUE(% Inhibition) DNA-PK(h) 0.01 μM
outcome.measure: inhibition at 0.01 µM (%)

* Cc1ccc(-c2cccc3c(Cl)c([C@H](C)Nc4ncnc5[nH]ccc(=O)c45)n(-c4ccccc4)c(=O)c23)cc1 | 15.6
* C[C@H](Nc1ncnc2[nH]ccc(=O)c12)c1c(Cl)c2cccc(C(=O)C3CC3)c2c(=O)n1-c1ccccc1 | 26
* CC(C)c1ncncc1-c1cccc2c(Cl)c([C@H](C)Nc3ncnc4[nH]ccc(=O)c34)n(-c3ccccc3)c(=O)c12 | 44
* C[C@H](Nc1ncnc2[nH]ccc(=O)c12)c1c(Br)c2cccc(-c3cnn(C)c3)c2c(=O)n1-c1ccccc1 | 78
* C[C@H](Nc1ncnc2[nH]ccc(=O)c12)c1c(Br)c2cccc(-c3ccc(N(C)C)cc3)c2c(=O)n1-c1ccccc1 | 7
* C[C@H](Nc1ncnc2[nH]ccc(=O)c12)c1cc2cccc(-c3ccc(C#N)cc3)c2c(=O)n1-c1ccccc1 | 38
* C[C@H](Nc1ncnc2[nH]ccc(=O)c12)c1c(Cl)c2cccc(-c3ccc(C(N)=O)nc3)c2c(=O)n1-c1ccccc1 | 73

----------
- target.system: PI3K-δ (PI3K(p1108/p857) (h)) (Homo sapiens)
- experiment: Evaluation of inhibitory activity against PI3K-δ (HTRF kinase assay)
- Type: biochemical
- condition.label: compound concentration 0.01 μM; read-out: EXP_VALUE(% Inhibition) PI3K-δ 0.01 μM
Quick rule for you: inhibition at 0.01 µM at 80% or higher means YES, lower means NO.

• C[C@H](Nc1ncnc2[nH]ccc(=O)c12)c1c(Cl)c2cccc(-c3cnc(N4CCN(C)CC4)nc3)c2c(=O)n1-c1ccccc1 [Example 216] = YES
• C[C@H](Nc1ncnc2[nH]ccc(=O)c12)c1c(Cl)c2cccc(-c3ccc(S)cc3)c2c(=O)n1-c1ccccc1 [Example 95] = NO
• C[C@H](Nc1ncnc2[nH]ccc(=O)c12)c1c(Cl)c2cccc(-c3ccncc3)c2c(=O)n1-c1ccccc1 [Example 134] = YES
• C[C@H](Nc1ncnc2[nH]ccc(=O)c12)c1c(Cl)c2cccc(C3NCCS3)c2c(=O)n1-c1ccccc1 (stereo partly shown) [Example 356] = NO
• C[C@H](Nc1ncnc2[nH]ccc(=O)c12)c1c(Cl)c2cccc(-c3cccnc3)c2c(=O)n1-c1ccccc1 [Example 4] = YES
• C[C@H](Nc1ncnc2[nH]ccc(=O)c12)c1c(Cl)c2cccc(C#Cc3ccc(N(C)C)cc3)c2c(=O)n1-c1ccccc1 [Example 314] = NO

----------
- target.system: DNA-PK(h) (Homo sapiens, UniProt P78527)
- experiment: Evaluation of inhibitory activity against DNA-PK (HTRF kinase assay, GST-cMyc-p53 substrate)
- Type: biochemical
- condition.label: compound concentration 0.01 μM; read-out: EXP_VALUE(% Inhibition) DNA-PK(h) 0.01 μM
# key: entry, value: inhibition at 0.01 µM
outcome.measure: inhibition at 0.01 µM (%)

• C[C@H](Nc1ncnc2[nH]ccc(=O)c12)c1c(Cl)c2cccc(-c3cnc(N4CCN(C)CC4)cn3)c2c(=O)n1-c1ccccc1 [Example 211] = 55
• C[C@H](Nc1ncnc2[nH]ccc(=O)c12)c1cc2cccc(-c3nc4ccccc4o3)c2c(=O)n1-c1ccccc1 [Example 318] = 19
• CCOc1cnc(-c2cccc3c(Cl)c([C@H](C)Nc4ncnc5[nH]ccc(=O)c45)n(-c4ccccc4)c(=O)c23)cn1 [Example 230] = 41
• C[C@H](Nc1ncnc2[nH]ccc(=O)c12)c1c(Cl)c2cccc(-c3ccc4c(ccn4C)c3)c2c(=O)n1-c1ccccc1 [Example 116] = 32
• COc1ncc(-c2cccc3c(Cl)c([C@H](C)Nc4ncnc5[nH]ccc(=O)c45)n(-c4ccccc4)c(=O)c23)cc1[N+](=O)[O-] [Example 61] = 67
• COc1ccccc1Oc1cccc2c(Cl)c([C@H](C)Nc3ncnc4[nH]ccc(=O)c34)n(-c3ccccc3)c(=O)c12 [Example 366] = 23

----------
- target.system: DNA-PK(h) (Homo sapiens, UniProt P78527)
- experiment: Evaluation of inhibitory activity against DNA-PK (HTRF kinase assay, GST-cMyc-p53 substrate)
- Type: biochemical
- condition.label: compound concentration 0.01 μM; read-out: EXP_VALUE(% Inhibition) DNA-PK(h) 0.01 μM
# key: entry, value: inhibition at 0.01 µM
outcome.measure: inhibition at 0.01 µM (%)

• C[C@H](Nc1ncnc2[nH]ccc(=O)c12)c1c(Br)c2cccc(Cl)c2c(=O)n1-c1ccccc1 = 52
• C[C@H](Nc1ncnc2[nH]ccc(=O)c12)c1c(Cl)c2cccc(C#Cc3cncs3)c2c(=O)n1-c1ccccc1 = 47.2
• C[C@H](Nc1ncnc2[nH]ccc(=O)c12)c1c(Cl)c2cccc(-c3cnc4nonc4c3)c2c(=O)n1-c1ccccc1 = 46
• CC(C)S(=O)(=O)c1ccc(-c2cccc3c(Cl)c([C@H](C)Nc4ncnc5[nH]ccc(=O)c45)n(-c4ccccc4)c(=O)c23)cc1 = 77

----------
- target.system: PI3K-δ (PI3K(p1108/p857) (h)) (Homo sapiens, UniProt O00329)
- Sequence (O00329 whole entry): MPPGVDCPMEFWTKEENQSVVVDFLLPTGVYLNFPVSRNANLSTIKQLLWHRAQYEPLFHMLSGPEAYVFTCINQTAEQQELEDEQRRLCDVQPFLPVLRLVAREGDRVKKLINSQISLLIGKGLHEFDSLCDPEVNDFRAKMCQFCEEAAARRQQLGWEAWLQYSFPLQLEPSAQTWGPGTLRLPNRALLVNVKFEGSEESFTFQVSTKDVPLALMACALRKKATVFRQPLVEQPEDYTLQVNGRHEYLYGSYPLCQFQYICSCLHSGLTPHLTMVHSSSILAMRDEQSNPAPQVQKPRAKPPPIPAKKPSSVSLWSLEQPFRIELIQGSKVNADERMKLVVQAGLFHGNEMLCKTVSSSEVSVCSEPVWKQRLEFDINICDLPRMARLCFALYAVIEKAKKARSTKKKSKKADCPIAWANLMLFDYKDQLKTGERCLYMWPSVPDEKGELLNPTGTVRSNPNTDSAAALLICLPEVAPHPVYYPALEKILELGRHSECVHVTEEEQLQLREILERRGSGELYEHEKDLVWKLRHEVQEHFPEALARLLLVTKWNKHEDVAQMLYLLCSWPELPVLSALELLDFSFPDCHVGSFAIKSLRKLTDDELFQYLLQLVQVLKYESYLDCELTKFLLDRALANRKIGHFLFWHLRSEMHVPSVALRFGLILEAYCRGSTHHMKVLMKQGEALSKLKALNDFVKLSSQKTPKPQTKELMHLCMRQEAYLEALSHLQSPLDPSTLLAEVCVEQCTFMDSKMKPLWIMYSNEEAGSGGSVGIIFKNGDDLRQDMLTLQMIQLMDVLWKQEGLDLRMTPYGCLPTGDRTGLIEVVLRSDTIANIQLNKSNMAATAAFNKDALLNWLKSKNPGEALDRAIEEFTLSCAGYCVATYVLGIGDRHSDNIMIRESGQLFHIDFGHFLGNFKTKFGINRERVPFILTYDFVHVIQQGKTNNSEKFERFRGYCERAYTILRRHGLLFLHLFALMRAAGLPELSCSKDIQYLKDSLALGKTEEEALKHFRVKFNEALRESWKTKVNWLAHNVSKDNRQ
- Sequence (P27986 whole entry partner): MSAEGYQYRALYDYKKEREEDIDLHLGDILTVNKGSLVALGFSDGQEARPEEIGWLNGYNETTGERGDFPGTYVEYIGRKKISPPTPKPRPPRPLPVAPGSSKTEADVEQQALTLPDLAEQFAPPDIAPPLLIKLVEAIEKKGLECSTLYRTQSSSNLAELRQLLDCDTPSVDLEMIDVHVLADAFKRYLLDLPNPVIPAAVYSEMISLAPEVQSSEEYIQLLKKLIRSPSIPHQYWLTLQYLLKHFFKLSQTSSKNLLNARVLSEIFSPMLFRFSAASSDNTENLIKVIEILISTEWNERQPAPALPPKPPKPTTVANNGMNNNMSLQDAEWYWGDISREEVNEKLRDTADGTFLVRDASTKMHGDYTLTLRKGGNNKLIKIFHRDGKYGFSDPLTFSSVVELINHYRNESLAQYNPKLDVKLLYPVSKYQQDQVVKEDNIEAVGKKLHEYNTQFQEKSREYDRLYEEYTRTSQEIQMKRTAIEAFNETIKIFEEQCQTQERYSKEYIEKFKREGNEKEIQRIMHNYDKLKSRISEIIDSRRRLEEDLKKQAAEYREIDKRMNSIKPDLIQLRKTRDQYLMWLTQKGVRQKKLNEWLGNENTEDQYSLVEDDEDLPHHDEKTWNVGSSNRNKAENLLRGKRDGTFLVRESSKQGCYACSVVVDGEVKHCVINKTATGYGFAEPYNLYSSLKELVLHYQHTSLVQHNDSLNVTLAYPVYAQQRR
- experiment: Evaluation of inhibitory activity against PI3K-δ (HTRF kinase assay)
- Format: biochemical
- condition.label: compound concentration 0.01 μM; read-out: EXP_VALUE(% Inhibition) PI3K-δ 0.01 μM
outcome.measure: inhibition at 0.01 µM (%)

• C[C@H](Nc1ncnc2[nH]ccc(=O)c12)c1c(Cl)c2cccc(SCc3ccc(Cl)cc3)c2c(=O)n1-c1ccccc1 = 5
• C[C@H](Nc1ncnc2[nH]ccc(=O)c12)c1c(Cl)c2cccc(C(=O)NCc3ccccc3)c2c(=O)n1-c1ccccc1 = 91
• C[C@H](Nc1ncnc2[nH]ccc(=O)c12)c1c(Cl)c2cccc(C#Cc3ccc(C(F)(F)F)cc3)c2c(=O)n1-c1ccccc1 [Example 315, 2,2,2-trifluoroacetate] = 39
• C[C@H](Nc1ncnc2[nH]ccc(=O)c12)c1c(Cl)c2cccc(-c3ccc(N(C)C)cc3)c2c(=O)n1-c1ccccc1 = 99
• C[C@H](Nc1ncnc2[nH]ccc(=O)c12)c1c(Cl)c2cccc(-c3ccc4[nH]ncc4c3)c2c(=O)n1-c1ccccc1 = 79
• CC(=O)Nc1cccc2c(Cl)c([C@H](C)Nc3ncnc4[nH]ccc(=O)c34)n(-c3ccccc3)c(=O)c12 = 46
